# maps each entry to its Ki
# Protocol summary: Displacement of [3H]flumazenil from GABAA in rat cortical tissue
Respond with the bare value in nM.

Some solved cases for reference:
> print(dat)
                               input.smiles  experimental.readout  unit.name  number
1           CCc1ccc2oc(-c3ccccc3)cc(=O)c2c1                    Ki         nM     180
2    Cc1ccc2c(c1)c(=O)cc(-c1cc(Br)ccc1O)n2C                    Ki         nM    1100
3  Cc1ccc2[nH]c(-c3cc(Cc4ccccc4)ccc3O)cc(=O)c2c1                    Ki         nM       2
4  Cc1ccc2nc(-c3cc(Cc4ccccc4)ccc3O)cc(N3CCOCC3)c2c1                    Ki         nM     400
5    Cc1ccc2[nH]c(-c3cc(Br)ccc3O)cc(=O)c2c1                    Ki         nM      22

Short answer for CCc1ccc2[nH]c(-c3ccccc3)cc(=O)c2c1 : Ki was 1200

Record COc1ccc(Br)cc1-c1cc(=O)c2cc(C)ccc2[nH]1 , field Ki: 730

# Ki of Cc1ccc2oc(-c3cc(Br)ccc3O)cc(=O)c2c1 = 0.9

The compound listed as Cc1ccc2nc(-c3cc(Br)ccc3O)cc(N3CCOCC3)c2c1 shows Ki equal to 840

According to the records, this compound Cc1ccc2oc(-c3cc(Cc4ccccc4)ccc3O)cc(=O)c2c1 displays Ki of 0.6

----------
# System: Gamma-aminobutyric acid receptor subunit alpha-3 (Rattus norvegicus, UniProt P18508+P20236+P63079)
# Sequence (P20236 whole entry, one chain of several): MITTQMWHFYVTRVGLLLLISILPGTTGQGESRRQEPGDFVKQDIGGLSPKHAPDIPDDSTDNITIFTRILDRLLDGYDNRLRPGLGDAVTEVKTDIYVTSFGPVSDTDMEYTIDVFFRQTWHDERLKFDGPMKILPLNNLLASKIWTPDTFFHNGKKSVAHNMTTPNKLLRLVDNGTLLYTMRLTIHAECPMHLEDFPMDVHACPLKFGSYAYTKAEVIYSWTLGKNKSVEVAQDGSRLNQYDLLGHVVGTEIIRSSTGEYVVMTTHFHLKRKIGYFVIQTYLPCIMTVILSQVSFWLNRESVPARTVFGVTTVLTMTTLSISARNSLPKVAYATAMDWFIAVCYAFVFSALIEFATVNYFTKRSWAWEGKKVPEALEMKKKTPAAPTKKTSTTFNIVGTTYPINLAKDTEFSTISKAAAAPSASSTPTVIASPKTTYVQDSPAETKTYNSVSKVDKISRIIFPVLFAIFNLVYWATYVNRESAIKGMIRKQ
# Protocol summary: Displacement of [3H]flumazenil in rat GABAA alpha-3-beta-3-gamma-2 receptor expressed in HEK293 cells
Ki by entry:
State the answer as a number, implicitly in nM.

> print(dat)
                               input.smiles  number
1  Cc1ccc2oc(-c3cc(Cc4ccccc4)ccc3O)cc(=O)c2c1      11

// Ki lookup, molecule = Cc1ccc2nc(-c3cc(Br)ccc3O)cc(O)c2c1 , result: 99

// recorded Ki for Cc1ccc2[nH]c(-c3cc(Cc4ccccc4)ccc3O)cc(=O)c2c1 : 31

----------
# System: GABA-A receptor; alpha-2/beta-3/gamma-2 (Rattus norvegicus)
# Protocol summary: Displacement of [3H]flumazenil in rat GABAA alpha-2-beta-3-gamma-2 receptor expressed in HEK293 cells
This listing pairs compounds with measured pKi.
Expect pKi as a plain number equal to -log10 of the molar concentration.

# annotated cases, reported pKi shown
> print(dat)
                               input.smiles  number
1        Cc1ccc2nc(-c3cc(Br)ccc3O)cc(O)c2c1    6.92
2  Cc1ccc2[nH]c(-c3cc(Cc4ccccc4)ccc3O)cc(=O)c2c1    7.74

compound Cc1ccc2oc(-c3cc(Cc4ccccc4)ccc3O)cc(=O)c2c1 , pKi observed: 7.72

----------
Entries annotated with measured pKi
# System: GABA A receptor alpha-5/beta-3/gamma-2 (Rattus norvegicus, UniProt P18508+P19969+P63079)
# Sequence (P18508 whole entry): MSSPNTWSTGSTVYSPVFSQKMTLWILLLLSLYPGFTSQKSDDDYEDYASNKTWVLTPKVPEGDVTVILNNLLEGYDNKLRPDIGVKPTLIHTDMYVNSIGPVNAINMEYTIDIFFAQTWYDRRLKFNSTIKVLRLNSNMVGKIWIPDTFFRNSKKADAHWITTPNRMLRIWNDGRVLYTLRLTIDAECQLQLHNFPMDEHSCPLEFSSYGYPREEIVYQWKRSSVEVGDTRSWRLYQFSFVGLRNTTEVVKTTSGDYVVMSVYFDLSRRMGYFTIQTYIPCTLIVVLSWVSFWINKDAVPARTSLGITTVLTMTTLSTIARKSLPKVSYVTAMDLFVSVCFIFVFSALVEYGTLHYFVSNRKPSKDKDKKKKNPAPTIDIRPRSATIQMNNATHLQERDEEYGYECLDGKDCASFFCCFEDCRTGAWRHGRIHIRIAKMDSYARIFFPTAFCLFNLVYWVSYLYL
# Sequence (P19969 whole entry): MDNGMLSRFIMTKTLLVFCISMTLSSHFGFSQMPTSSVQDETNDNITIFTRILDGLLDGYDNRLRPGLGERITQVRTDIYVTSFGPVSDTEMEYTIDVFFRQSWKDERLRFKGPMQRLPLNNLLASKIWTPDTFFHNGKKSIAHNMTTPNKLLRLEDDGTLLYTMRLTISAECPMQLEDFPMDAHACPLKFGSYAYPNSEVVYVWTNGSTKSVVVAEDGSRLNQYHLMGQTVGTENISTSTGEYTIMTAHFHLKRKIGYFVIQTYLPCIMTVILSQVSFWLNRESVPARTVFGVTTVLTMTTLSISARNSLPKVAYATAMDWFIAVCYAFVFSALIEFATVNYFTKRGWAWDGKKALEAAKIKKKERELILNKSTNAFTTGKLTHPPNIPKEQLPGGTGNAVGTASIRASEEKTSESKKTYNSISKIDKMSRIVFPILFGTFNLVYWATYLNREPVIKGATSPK
# Sequence (P63079 whole entry): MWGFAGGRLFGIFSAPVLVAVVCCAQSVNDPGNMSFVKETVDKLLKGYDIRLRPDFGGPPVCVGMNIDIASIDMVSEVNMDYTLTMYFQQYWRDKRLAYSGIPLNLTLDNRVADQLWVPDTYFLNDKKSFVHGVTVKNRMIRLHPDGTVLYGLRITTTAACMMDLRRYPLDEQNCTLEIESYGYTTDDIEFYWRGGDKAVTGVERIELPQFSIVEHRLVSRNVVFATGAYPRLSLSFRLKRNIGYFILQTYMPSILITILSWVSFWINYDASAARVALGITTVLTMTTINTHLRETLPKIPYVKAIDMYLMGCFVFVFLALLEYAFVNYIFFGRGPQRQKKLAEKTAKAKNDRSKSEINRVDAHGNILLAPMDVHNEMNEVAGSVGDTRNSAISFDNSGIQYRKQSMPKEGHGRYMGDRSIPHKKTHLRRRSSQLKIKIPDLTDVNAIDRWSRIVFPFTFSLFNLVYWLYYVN
# Protocol summary: Displacement of [3H]flumazenil in rat GABAA alpha-5-beta-3-gamma-2 receptor expressed in HEK293 cells
Keep it numeric: pKi is minus log10 of the concentration in mol/L.

> print(dat)
                               input.smiles                                    system  experimental.readout  number
1  Cc1ccc2[nH]c(-c3cc(Cc4ccccc4)ccc3O)cc(=O)c2c1  GABA A receptor alpha-5/beta-3/gamma-2 (Rattus norvegicus, UniProt P18508+P19969+P63079)                   pKi    8.14

Would you kindly look at the next entry?
Per the records, this compound ( Cc1ccc2oc(-c3cc(Cc4ccccc4)ccc3O)cc(=O)c2c1 ) has pKi equal to 8.62
